The measured values listed here are drawn from the METLIN SMRT retention time set (Domingo-Almenara et al. 2019).

Experiment: gradient 5% acetonitrile 3 min, to 50% in 2 min, to 85% in 15 min, held 3 min, 100 µL/min
Settings: column: Zorbax Extend-C18 2.1 x 50 mm; eluents: water / acetonitrile, 0.1% formic acid
A collection of compounds and their measured RP-LC retention time
Return type: number; implicit unit s.

compound=Cc1ccc(NC(=O)/C=C/c2ccccc2)c(C)c1 reported_endpoint="RP-LC retention time" experimental_value=913

Input line: Give its RP-LC retention time value. Item: `CCOc1ccc(NC(=O)Cn2c(=O)n(-c3ccc(F)cc3)c(=O)c3c2cc(C)n3C)cc1`
Output line: 866

Input line: Next up: Cc1nn(C2CCS(=O)(=O)C2)c(C)c1N1CCN(C(=O)c2cc3ccccc3[nH]2)CC1 (centres undefined)
Output line: 747

Input line: Next up: `O=C(Nc1ccc2c(c1)OCO2)N1CCN(c2ccc3nnc(C4CC4)n3n2)CC1`
Output line: 613

Input line: Next up: `O=C(Cn1c(-c2cccs2)cc2cc(F)ccc21)NCCN1CCOCC1`
Output line: 680

Input line: Next up: `Cc1sc(C)c(S(=O)(=O)Nc2cccc(F)c2)c1-c1cc(C(F)(F)F)on1`
Output line: 1140

Input line: Next up: `Cc1cc(C)c2c(=O)n(Cc3nc(-c4ccccc4Cl)oc3C)c(=O)n(Cc3ccco3)c2n1`
Output line: 1390

Input line: Next up: `CC(=O)c1cccc(NC(=O)CN2C(=O)CC(c3ccccc3)=Nc3cccnc32)c1`
Output line: 854

Input line: Next up: `Cc1cc(N2CCCC2)n2nc(-c3ccc(Cl)cc3)c(C)c2n1`
Output line: 799

---

Experiment: gradient 5% acetonitrile 3 min, to 50% in 2 min, to 85% in 15 min, held 3 min, 100 µL/min
Conditions: column: Zorbax Extend-C18 2.1 x 50 mm; eluents: water / acetonitrile, 0.1% formic acid
Just a reminder that ties go to label 0: only RP-LC retention time strictly below 700 s counts as label 1.

Solved entries (count: 3):
compound=CCOc1ccccc1NC(=O)Cn1cccc(-c2nc(-c3ccc(Br)cc3)no2)c1=O assigned_category="label 0"
compound="COC1C(=O)N(c2cccc(F)c2)C12CCN(S(=O)(=O)c1cccs1)CC2 (stereo not given)" assigned_category="label 0"
compound="CCC(CC)CN1CCC(n2c(C)cnc2-c2ccncc2)C1 (stereo not given)" assigned_category="label 1"

Here is another compound to look at.
Input line: Does the reported RP-LC retention time of `O=c1n(Cc2cccc(F)c2)nc2ccc(S(=O)(=O)N3CCCCC3)cn12` stay below 700 s?
Output line: label 0

---

Test: gradient 5% acetonitrile 3 min, to 50% in 2 min, to 85% in 15 min, held 3 min, 100 µL/min
Conditions: column: Zorbax Extend-C18 2.1 x 50 mm; eluents: water / acetonitrile, 0.1% formic acid
Entries are grouped by RP-LC retention time into these classes: lo = under 700 s, mid = from 700 s up to 800 s, hi = 800 s and over

Solved entries (count: 4):
molecule=Cc1cc(C)c2nc(C)cc(C(=O)NCc3ccc(C)o3)c2c1 assigned_category=mid
molecule=CCOC(=O)c1ccc(N(C)c2csc(-c3ccccc3)n2)cc1 assigned_category=hi
molecule=Cc1ccc(C(=O)NCC(=O)N2CCCc3ccccc32)s1 assigned_category=hi
molecule=CCNc1cc(N2CCC(CCC(=O)N3CCN(C(C)C)CC3)CC2)ncn1 assigned_category=lo

Here is another molecule to look at.
Input line: Please indicate the class for `CCOc1ccccc1NC(=O)CN1C(=O)C(C)(C)c2ccccc21` based on its RP-LC retention time.
Output line: hi

---

A collection of molecules and their measured RP-LC retention time
Assay: gradient 5% acetonitrile 3 min, to 50% in 2 min, to 85% in 15 min, held 3 min, 100 µL/min
Settings: column: Zorbax Extend-C18 2.1 x 50 mm; eluents: water / acetonitrile, 0.1% formic acid
Return type: number; implicit unit s.

A selection of reference data follows.
molecule="COC(=O)c1ncn2c1C(=O)N(Cc1ccc(F)cc1)C(C)(C(=O)NC1CCCCC1)C2 (stereo not given)" experimental_value=752
molecule="O=C(NCC1CN(CC2CC2)CC12CCCCC2)Nc1cc(F)cc(F)c1 (stereo not given)" experimental_value=760
molecule=c1csc(CN2CCC(c3nc(-c4cnccn4)n[nH]3)CC2)c1 experimental_value=555

Input line: Give its RP-LC retention time value. Item: O=C(Nc1cc(-c2cccs2)nn1CCO)C1COc2ccccc2O1 (stereo not given)
Output line: 784

Input line: Next up: `Cc1sc(NC(=O)C(F)(F)F)nc1-c1ccc2c(c1)NC(=O)CO2`
Output line: 763

---

Assay: gradient 5% acetonitrile 3 min, to 50% in 2 min, to 85% in 15 min, held 3 min, 100 µL/min
Settings: column: Zorbax Extend-C18 2.1 x 50 mm; eluents: water / acetonitrile, 0.1% formic acid
A collection of molecules and their measured RP-LC retention time

molecule="Cc1nnc(C2CCCN(C(=O)Cn3c(=O)oc4ccccc43)C2)s1 (stereo not given)" reported_endpoint="RP-LC retention time" experimental_value="633 s"
molecule=CCn1cc(S(=O)(=O)Nc2ccc(C)cc2C)c2cccnc21 reported_endpoint="RP-LC retention time" experimental_value="900 s"
molecule=Cc1ccc(N2CCN(C(=O)c3cn4c(n3)COCC4)CC2)cc1 reported_endpoint="RP-LC retention time" experimental_value="651 s"

Input line: Give its RP-LC retention time value. Item: `COc1ccc(-c2nnc(COc3ccc(NC(=O)c4n[nH]c5c4CCCC5)cc3)o2)cc1`
Output line: 907 s

Input line: Next up: `CC(C)NC(=O)c1ccc(-c2nc3cc(NS(=O)(=O)c4cc(F)cc(F)c4)ccc3n2C)cc1`
Output line: 718 s

---

A collection of compounds and their measured RP-LC retention time
Experiment: gradient 5% acetonitrile 3 min, to 50% in 2 min, to 85% in 15 min, held 3 min, 100 µL/min
Settings: column: Zorbax Extend-C18 2.1 x 50 mm; eluents: water / acetonitrile, 0.1% formic acid
Return type: number; implicit unit s.

A selection of reference data follows.
compound=O=C(NCCNc1cc(-n2cccn2)ncn1)c1c[nH]c2ccccc12 reported_endpoint="RP-LC retention time" unit_info=s experimental_value=646
compound=COc1cc(NC(=O)CCc2c(C)nn(-c3cc(N(C)C)ncn3)c2C)cc(OC)c1 reported_endpoint="RP-LC retention time" unit_info=s experimental_value=792
compound=Cc1ccc2c(=O)c3c([nH]c2c1C)CCN(CC(=O)Nc1cc(F)cc(F)c1)C3 reported_endpoint="RP-LC retention time" unit_info=s experimental_value=638

# next compound below
Input line: Give its RP-LC retention time value. Item: `O=C(Nc1ccccc1)c1cccn1Cc1noc(-c2ccccc2)n1`
Output line: 1020

---

Experiment: gradient 5% acetonitrile 3 min, to 50% in 2 min, to 85% in 15 min, held 3 min, 100 µL/min
Details: column: Zorbax Extend-C18 2.1 x 50 mm; eluents: water / acetonitrile, 0.1% formic acid
A collection of compounds and their measured RP-LC retention time
Return type: number; implicit unit s.

A selection of reference data follows.
compound=Cc1noc2nc(CCC(=O)NCCCN3CCc4ccccc4C3)nc(N3CCCCC3)c12 experimental_value=670
compound=CCCNC(=O)N1CCN(Cc2nc(-c3ccc(OCC)cc3)oc2C)CC1 experimental_value=661
compound="Cc1cc2nc(C(F)(F)F)c(=O)n(C(C)C(=O)N3CCN(c4ccccn4)CC3)c2cc1C (stereo not given)" experimental_value=796
compound="Cc1ccc(Cn2c(N3CCCC(C(=O)Nc4ccc(Cl)cc4)C3)nc3ccsc3c2=O)cc1 (stereo not given)" experimental_value=1160

# next compound below
Input line: Give its RP-LC retention time value. Item: COC(=O)C(C)NC(=O)NCc1cccn1Cc1ccccc1C (stereo not given)
Output line: 821

---

Test: gradient 5% acetonitrile 3 min, to 50% in 2 min, to 85% in 15 min, held 3 min, 100 µL/min
Details: column: Zorbax Extend-C18 2.1 x 50 mm; eluents: water / acetonitrile, 0.1% formic acid
Think of 800 s as a floor: if RP-LC retention time stands on it or above, it is label 1; beneath it, label 0.

molecule=COc1ccc(CNC(=O)c2cc3sc(Cl)cc3n2C)cc1 assigned_category="label 1"
molecule=O=C1CC2(CCN(S(=O)(=O)c3cc(F)ccc3F)CC2)Oc2ccccc21 assigned_category="label 1"
molecule=Cc1nc2cc(-c3noc(-c4ccc(C#N)cc4F)n3)ccc2o1 assigned_category="label 1"
molecule="CSc1ccc(NC(=O)NC2CCN(c3ccc(F)c(C)c3)C2=O)cc1 (centres undefined)" assigned_category="label 1"

Input line: Kindly determine if RP-LC retention time recorded for `O=C1/C(=C/c2ccccc2)CN(C(=O)/C=C/c2ccccc2)C/C1=C\c1ccccc1` is above or exactly 800 s.
Output line: label 1

Input line: Next up: `Cc1ccc(N2CCn3c2nc2c3c(=O)n(CC(=O)O)c(=O)n2C)cc1`
Output line: label 0

Input line: Next up: CN(CCCNC(=O)C1CCCN(c2nnc(-n3cccc3)s2)C1)C1CCCCC1 (centres undefined)
Output line: label 0

Input line: Next up: CCCOc1cccc(C(=O)N(Cc2ccc(Br)o2)C2CCS(=O)(=O)C2)c1 (centres undefined)
Output line: label 1
